- protocol: Selectivity index, ratio of IC50 for cytotoxicity against chinese hamster V79 cells to IC50 for cytotoxicity against human A549 cells
- Assay type: toxicity, cell-based
- assay-setup: V79 cells versus A549 cells, read-out: Ratio IC50
property-label: selectivity ratio
Answer as a number with no unit attached.

Some solved cases for reference:
compound	property-label	result
CC[C@@H](C(=O)[C@@H](C)[C@@H](O)[C@H](C)[C@@H]1O[C@@H]([C@@H](CC)C(=O)OCCCC[P+](c2ccccc2)(c2ccccc2)c2ccccc2)CC[C@@H]1C)[C@H]1O[C@]2(C=C[C@@H](O)[C@]3(CC[C@@](C)([C@H]4CC[C@](O)(CC)[C@H](C)O4)O3)O2)[C@H](C)C[C@@H]1C.[Br-]	selectivity ratio	0.2
CC[C@@H](C(=O)[C@@H](C)[C@@H](O)[C@H](C)[C@@H]1O[C@@H]([C@@H](CC)C(=O)OCCCCCC[P+](c2ccc(OC)cc2)(c2ccc(OC)cc2)c2ccc(OC)cc2)CC[C@@H]1C)[C@H]1O[C@]2(C=C[C@@H](O)[C@]3(CC[C@@](C)([C@H]4CC[C@](O)(CC)[C@H](C)O4)O3)O2)[C@H](C)C[C@@H]1C.[Br-]	selectivity ratio	0.7
CC[C@@H](C(=O)[C@@H](C)[C@@H](O)[C@H](C)[C@@H]1O[C@@H]([C@@H](CC)C(=O)OCCCC[P+](c2ccc(OC)cc2)(c2ccc(OC)cc2)c2ccc(OC)cc2)CC[C@@H]1C)[C@H]1O[C@]2(C=C[C@@H](O)[C@]3(CC[C@@](C)([C@H]4CC[C@](O)(CC)[C@H](C)O4)O3)O2)[C@H](C)C[C@@H]1C.[Br-]	selectivity ratio	1
CC[C@@H](C(=O)[C@@H](C)[C@@H](O)[C@H](C)[C@@H]1O[C@@H]([C@@H](CC)C(=O)O)CC[C@@H]1C)[C@H]1O[C@]2(C=C[C@@H](O)[C@]3(CC[C@@](C)([C@H]4CC[C@](O)(CC)[C@H](C)O4)O3)O2)[C@H](C)C[C@@H]1C [SALINOMYCIN]	selectivity ratio	0.8
CC[C@@H](C(=O)[C@@H](C)[C@@H](O)[C@H](C)[C@@H]1O[C@@H]([C@@H](CC)C(=O)OCCCC[P+](c2ccc(C)cc2)(c2ccc(C)cc2)c2ccc(C)cc2)CC[C@@H]1C)[C@H]1O[C@]2(C=C[C@@H](O)[C@]3(CC[C@@](C)([C@H]4CC[C@](O)(CC)[C@H](C)O4)O3)O2)[C@H](C)C[C@@H]1C.[Br-]	selectivity ratio	4.7

Query: Need selectivity ratio of CC[C@@H](C(=O)[C@@H](C)[C@@H](O)[C@H](C)[C@@H]1O[C@@H]([C@@H](CC)C(=O)OCCCCCC[P+](c2ccc(C)cc2)(c2ccc(C)cc2)c2ccc(C)cc2)CC[C@@H]1C)[C@H]1O[C@]2(C=C[C@@H](O)[C@]3(CC[C@@](C)([C@H]4CC[C@](O)(CC)[C@H](C)O4)O3)O2)[C@H](C)C[C@@H]1C.[Br-] , thanks.
Reply: 0.7
